Value source: paper PMC9604400

# System: CCRF-CEM
# ASSAY_INFO: NCI-60 screen (SRB), leukemia
# RECORDED_CONDITIONS: Homo sapiens
Form field: pIC50 (one value per entry).
Scale: pIC50 equals -log10([C]), with [C] in mol/L.

Use these answered entries as a reference point.
| COMPOUND | pIC50 |
| --- | --- |
| COc1cc(OC)c(S(N)(=O)=O)cc1C(=O)/C=C/c1ccc(Cl)cc1 [Compound 17b] | 5.82 |
| COc1cc(OC)c(S(N)(=O)=O)cc1C(=O)C=Cc1ccccc1 [Compound 17a] | 5.41 |
| COc1cc(OC)c(S(N)(=O)=O)cc1C(=O)/C=C/c1ccc(C)cc1 [Compound 17c] | 5.40 |

Given the entry COc1cc(OC)c(S(=O)(=O)N(CCCl)CCCl)cc1C(=O)/C=C/c1cc(OC)c(OC)c(OC)c1 [Compound 18e] , what pIC50 was observed with CCRF-CEM? 5.77

----------
ASSAY_METRIC: melting point

Answered cases to consult:
| MOLECULE | melting point |
| --- | --- |
| COc1ccc(C2=NN(C=O)C(c3ccc(Cl)cc3)C2)cc1S(=O)(=O)NNC(=O)c1ccncc1 (stereo not drawn) | 156 to 158 °C |
| COc1cc(OC)c(S(=O)(=O)N(CCCl)CCCl)cc1C(=O)C=Cc1ccccc1 [Compound 18a] | 184 to 186 °C |

From here, focus on the item given below.
Requested field: melting point. Item: COc1ccc(C(=O)/C=C/c2ccc(Cl)cc2)cc1S(=O)(=O)NNC(=O)c1ccncc1 [Compound 19b] 242 to 244 °C

----------
The following molecules are listed with their measured pIC50 values.
# Test system: U251
# ASSAY_INFO: NCI-60 screen (SRB), CNS cancer
# RECORDED_CONDITIONS: Homo sapiens, U-251
Expect pIC50 as a plain number equal to -log10 of the molar concentration.

Examples with answers:
| MOLECULE | TARGET | ASSAY_METRIC | TEST_RESULT |
| --- | --- | --- | --- |
| COc1cc(OC)c(S(N)(=O)=O)cc1C(=O)/C=C/c1ccc(Cl)cc1 [Compound 17b] | U251 | pIC50 | 5.66 |
| COc1cc(OC)c(S(N)(=O)=O)cc1C(=O)C=Cc1ccccc1 [Compound 17a] | U251 | pIC50 | 5.53 |
| COc1cc(OC)c(S(=O)(=O)N(CCCl)CCCl)cc1C(=O)/C=C/c1cc(OC)c(OC)c(OC)c1 [Compound 18e] | U251 | pIC50 | 5.43 |

Let us examine a further case.
Need pIC50, item COc1cc(OC)c(S(N)(=O)=O)cc1C(=O)/C=C/c1ccc(C)cc1 [Compound 17c] 5.58

----------
# System: DU-145
# ASSAY_INFO: NCI-60 screen (SRB), prostate cancer
# RECORDED_CONDITIONS: Homo sapiens, DU-145
Listing: pIC50 of selected molecules
Worth noting: pIC50 values are minus log10 of concentrations stated in mol/L.

# example entries with known answers
| MOLECULE | pIC50 |
| --- | --- |
| COc1cc(OC)c(S(N)(=O)=O)cc1C(=O)C=Cc1ccccc1 [Compound 17a] | 5.73 |
| COc1cc(OC)c(S(N)(=O)=O)cc1C(=O)/C=C/c1ccc(Cl)cc1 [Compound 17b] | 5.46 |
| COc1cc(OC)c(S(N)(=O)=O)cc1C(=O)/C=C/c1ccc(C)cc1 [Compound 17c] | 5.37 |

Query: pIC50; subject: COc1cc(OC)c(S(=O)(=O)N(CCCl)CCCl)cc1C(=O)/C=C/c1cc(OC)c(OC)c(OC)c1 [Compound 18e] 4.83
